The following compounds are shown together with reported IC50 values.
measured target: PKC isoenzyme γ (Homo sapiens)
Construct: made in house; host or cells: baculovirus-insect cell expression system
assay comment: Protein kinase C inhibition assay, PKC isoenzyme γ
Assay type: biochemical
protocol conditions: read-out: IC50 PKC γ
Return type: number; implicit unit µM.

- compound: "Cc1cc(NS(=O)(=O)c2ccc(N=C3C=C(Nc4ccc(S(=O)(=O)Nc5cc(C)nc(C)n5)cc4)C(=O)c4ccccc43)cc2)nc(C)n1 [Compound 3d]"
  output unit: "µM"
  recorded number: 36
- compound: "O=C1C(Nc2ccc(S(=O)(=O)NCc3ccccn3)cc2)=CC(=Nc2ccc(S(=O)(=O)NCc3ccccn3)cc2)c2ccccc21 [Compound 3n]"
  output unit: "µM"
  recorded number: 24

// switching to the query compound
For the compound shown here, N=C(N)NS(=O)(=O)c1ccc(N=C2C=C(Nc3ccc(S(=O)(=O)NC(=N)N)cc3)C(=O)c3ccccc32)cc1 , give the reported IC50.
76

---

measured target: PKC isoenzyme ε (Homo sapiens, UniProt Q02156)
Construct: made in house; host or cells: baculovirus-insect cell expression system
Sequence (Q02156 whole entry): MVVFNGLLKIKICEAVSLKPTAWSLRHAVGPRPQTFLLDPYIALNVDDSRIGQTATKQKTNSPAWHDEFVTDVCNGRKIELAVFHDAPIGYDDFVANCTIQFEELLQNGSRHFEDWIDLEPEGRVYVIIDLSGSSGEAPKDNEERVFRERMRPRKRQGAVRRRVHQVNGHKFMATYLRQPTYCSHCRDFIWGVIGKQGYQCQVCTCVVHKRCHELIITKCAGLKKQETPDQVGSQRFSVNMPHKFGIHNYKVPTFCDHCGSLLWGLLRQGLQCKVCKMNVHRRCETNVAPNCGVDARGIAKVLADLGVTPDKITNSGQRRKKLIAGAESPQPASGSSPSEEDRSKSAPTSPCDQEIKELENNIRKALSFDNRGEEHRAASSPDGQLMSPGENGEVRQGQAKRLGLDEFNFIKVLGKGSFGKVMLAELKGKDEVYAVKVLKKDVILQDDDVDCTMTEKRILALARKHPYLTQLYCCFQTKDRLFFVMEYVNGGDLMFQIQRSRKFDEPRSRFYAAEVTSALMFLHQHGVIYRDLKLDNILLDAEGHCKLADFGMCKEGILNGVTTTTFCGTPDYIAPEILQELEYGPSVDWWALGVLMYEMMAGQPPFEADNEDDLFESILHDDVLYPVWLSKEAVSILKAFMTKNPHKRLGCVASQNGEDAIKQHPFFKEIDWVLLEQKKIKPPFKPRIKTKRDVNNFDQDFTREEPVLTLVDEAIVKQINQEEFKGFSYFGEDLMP
assay comment: Protein kinase C inhibition assay, PKC isoenzyme ε
Assay type: biochemical
protocol conditions: read-out: IC50 PKC ε
readout: IC50 (µM)
Return type: number; implicit unit µM.

- molecule: "Cc1cc(C)nc(NS(=O)(=O)c2cc(N=C3C=C(Nc4ccc(C)c(S(=O)(=O)Nc5cc(C)cc(C)n5)c4)C(=O)c4ccccc43)ccc2C)c1 [Compound 6ag]"
  measured target: "PKC isoenzyme ε (Homo sapiens, UniProt Q02156)"
  recorded number: 35

// switching to the query molecule
For the molecule shown here, Cc1cc(NS(=O)(=O)c2ccc(N=C3C=C(Nc4ccc(S(=O)(=O)Nc5cc(C)on5)cc4)C(=O)c4ccccc43)cc2)no1 , give the reported IC50.
145

---

measured target: PKC isoenzyme α (Homo sapiens, UniProt P17252)
Construct: made in house; host or cells: baculovirus-insect cell expression system
assay comment: Protein kinase C inhibition assay, PKC isoenzyme α
Assay type: biochemical
protocol conditions: read-out: IC50 PKC α
pIC50: −log10 of the molar value.
Classification field: met = pIC50 at or over 4; not met = pIC50 under 4.

A selection of reference data follows.
- molecule: "Cc1cc(C)nc(NS(=O)(=O)c2ccc(N=C3C=C(Nc4ccc(S(=O)(=O)Nc5nc(C)cc(C)n5)cc4)C(=O)c4ccccc43)cc2)n1 [Compound 6c]"
  cat: "met"
- molecule: "O=C1C(Nc2ccc(S(=O)(=O)Nc3ccc(Cl)nn3)cc2)=CC(=Nc2ccc(S(=O)(=O)Nc3ccc(Cl)nn3)cc2)c2ccccc21 [Compound 3l]"
  cat: "met"
- molecule: "Cc1cc(NS(=O)(=O)c2ccc(N=C3C=C(Nc4ccc(S(=O)(=O)Nc5cc(C)nc(C)n5)cc4)C(=O)c4ccccc43)cc2)nc(C)n1 [Compound 3d]"
  cat: "met"
- molecule: "Cc1noc(NS(=O)(=O)c2ccc(N=C3C=C(Nc4ccc(S(=O)(=O)Nc5onc(C)c5C)cc4)C(=O)c4ccccc43)cc2)c1C [Compound 3b]"
  cat: "met"
- molecule: "COc1cc(NS(=O)(=O)c2ccc(N=C3C=C(Nc4ccc(S(=O)(=O)Nc5cc(OC)nc(OC)n5)cc4)C(=O)c4ccccc43)cc2)nc(OC)n1 [Compound 6g]"
  cat: "met"

# input for lookup
Please indicate if the recorded pIC50 for O=C1C(Nc2ccc(S(=O)(=O)NCc3ccccn3)cc2)=CC(=Nc2ccc(S(=O)(=O)NCc3ccccn3)cc2)c2ccccc21 [Compound 6n] meets or exceeds 4.
not met

---

The following compounds are shown together with reported IC50 values.
System: MCF-7 human breast tumor cell line
assay comment: Human Tumor Cell Growth Inhibition (3H-thymidine incorporation)
Type: cell-based
protocol conditions: MCF-7, 24 hrs
Return type: number; implicit unit µM.

Examples with their reported IC50 follow.
- substance smiles: "O=C1C(Nc2ccc(S(=O)(=O)Nc3cnc4ccccc4n3)cc2)=CC(=Nc2ccc(S(=O)(=O)Nc3cnc4ccccc4n3)cc2)c2ccccc21"
  output unit: "µM"
  recorded number: 19
- substance smiles: "O=C1C(Nc2ccc(S(=O)(=O)Nc3ccccn3)cc2)=CC(=Nc2ccc(S(=O)(=O)Nc3ccccn3)cc2)c2ccccc21"
  output unit: "µM"
  recorded number: 20

// switching to the query compound
API: value(readout= IC50, system= MCF-7 human breast tumor cell line, query= Cc1cc(NS(=O)(=O)c2ccc(N=C3C=C(Nc4ccc(S(=O)(=O)Nc5cc(C)nc(C)n5)cc4)C(=O)c4ccccc43)cc2)nc(C)n1 )
17.9

---

The following compounds are shown together with reported pIC50 values.
measured target: PKC isoenzyme ζ (Homo sapiens, UniProt Q05513)
Construct: made in house; host or cells: baculovirus-insect cell expression system
Sequence (Q05513 1-592): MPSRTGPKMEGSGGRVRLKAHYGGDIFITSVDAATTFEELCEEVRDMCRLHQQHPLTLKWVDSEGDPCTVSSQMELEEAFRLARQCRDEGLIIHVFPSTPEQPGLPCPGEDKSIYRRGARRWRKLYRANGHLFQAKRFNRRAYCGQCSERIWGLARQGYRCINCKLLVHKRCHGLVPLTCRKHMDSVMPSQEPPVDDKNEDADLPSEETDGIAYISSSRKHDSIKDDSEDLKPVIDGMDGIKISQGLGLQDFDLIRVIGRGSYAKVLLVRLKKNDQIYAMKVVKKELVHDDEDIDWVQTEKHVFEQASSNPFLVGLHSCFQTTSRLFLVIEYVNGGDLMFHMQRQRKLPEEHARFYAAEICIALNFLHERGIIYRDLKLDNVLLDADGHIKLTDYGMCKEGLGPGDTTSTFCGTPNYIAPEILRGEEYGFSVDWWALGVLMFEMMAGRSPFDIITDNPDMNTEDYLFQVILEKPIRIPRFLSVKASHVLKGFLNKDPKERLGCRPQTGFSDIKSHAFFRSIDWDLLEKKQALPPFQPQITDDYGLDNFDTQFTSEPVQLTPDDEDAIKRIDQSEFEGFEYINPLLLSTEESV
assay comment: Protein kinase C inhibition assay, PKC isoenzyme ζ
Type: biochemical
protocol conditions: read-out: IC50 PKC .zeta.
pIC50: −log10 of the molar value.

Examples with their reported pIC50 follow.
- compound: "O=C1C(Nc2ccc(S(=O)(=O)Nc3ccccn3)cc2)=CC(=Nc2ccc(S(=O)(=O)Nc3ccccn3)cc2)c2ccccc21"
  readout: "pIC50"
  result: "< 3.82"
- compound: "Cc1cc(C)nc(NC(=O)c2ccc(N=C3C=C(Nc4ccc(C(=O)Nc5cc(C)cc(C)n5)cc4)C(=O)c4ccccc43)cc2)c1"
  readout: "pIC50"
  result: "< 3.82"
- compound: "Cc1cc(C)nc(NS(=O)(=O)c2cccc(N=C3C=C(Nc4cccc(S(=O)(=O)Nc5cc(C)cc(C)n5)c4)C(=O)c4ccccc43)c2)c1"
  readout: "pIC50"
  result: "< 3.82"

For the compound shown here, CCCCCCCCCCCCCCCCNS(=O)(=O)c1ccc(N=C2C=C(Nc3ccc(S(=O)(=O)NCCCCCCCCCCCCCCCC)cc3)C(=O)c3ccccc32)cc1 [Compound 6o] , give the reported pIC50.
< 3.82

For the compound shown here, COc1cc(NS(=O)(=O)c2ccc(N=C3C=C(Nc4ccc(S(=O)(=O)Nc5cc(OC)cc(OC)c5)cc4)C(=O)c4ccccc43)cc2)cc(OC)c1 , give the reported pIC50.
< 3.82

For the compound shown here, O=C1C(Nc2ccc(S(=O)(=O)Nc3cnc4ccccc4n3)cc2)=CC(=Nc2ccc(S(=O)(=O)Nc3cnc4ccccc4n3)cc2)c2ccccc21 [Compound 3m] , give the reported pIC50.
4.55

---

measured target: cAMP dependent protein kinase (PKA)
assay comment: cAMP Dependent Protein Kinase (PKA) Assay
protocol conditions: catalytic subunit of PKA
pIC50: −log10 of the molar value.
readout: pIC50

For the compound shown here, Cc1noc(NS(=O)(=O)c2ccc(N=C3C=C(Nc4ccc(S(=O)(=O)Nc5onc(C)c5C)cc4)C(=O)c4ccccc43)cc2)c1C [Compound 3b] , give the reported pIC50.
< 3.82

For the compound shown here, CCCCCCCCCCCCCCCCNS(=O)(=O)c1ccc(N=C2C=C(Nc3ccc(S(=O)(=O)NCCCCCCCCCCCCCCCC)cc3)C(=O)c3ccccc32)cc1 [Compound 3o] , give the reported pIC50.
< 3.82

For the compound shown here, O=C1C(Nc2ccc(S(=O)(=O)Nc3ccccn3)cc2)=CC(=Nc2ccc(S(=O)(=O)Nc3ccccn3)cc2)c2ccccc21 [Compound 6i] , give the reported pIC50.
< 3.82

---

measured target: PKC isoenzyme ε (Homo sapiens, UniProt Q02156)
Construct: made in house; host or cells: baculovirus-insect cell expression system
assay comment: Protein kinase C inhibition assay, PKC isoenzyme ε
Assay type: biochemical
protocol conditions: read-out: IC50 PKC ε
Protocol: A protein kinase C (PKC) assay is designed to duplicate the in vivo conditions required for protein kinase C function. Therefore, pH, salt and cofactor concentrations are similar to physiologic levels. Either lysine rich histone H1 (H1) or Myelin basic protein (Mbp) are used in the assay as the phosphorylation acceptor-protein because they are readily available and serve as good substrates for protein kinase C. Enzyme was prepared from baculovirus-insect cell expression systems. […]
pIC50: −log10 of the molar value.
readout: pIC50

Examples with their reported pIC50 follow.
- compound: "Cc1cc(C)nc(NS(=O)(=O)c2cccc(N=C3C=C(Nc4cccc(S(=O)(=O)Nc5cc(C)cc(C)n5)c4)C(=O)c4ccccc43)c2)c1 [Compound 3ae]"
  pIC50: "< 3.82"
- compound: "Cc1noc(NS(=O)(=O)c2ccc(N=C3C=C(Nc4ccc(S(=O)(=O)Nc5onc(C)c5C)cc4)C(=O)c4ccccc43)cc2)c1C [Compound 6b]"
  pIC50: "< 3.82"

// switching to the query compound
For the compound shown here, CCCCCCCCCCCCCCCCNS(=O)(=O)c1ccc(N=C2C=C(Nc3ccc(S(=O)(=O)NCCCCCCCCCCCCCCCC)cc3)C(=O)c3ccccc32)cc1 [Compound 3o] , give the reported pIC50.
< 3.82
